# assayed target: Amine oxidase [flavin-containing] B (Rattus norvegicus)
# Sequence (P19643 whole entry): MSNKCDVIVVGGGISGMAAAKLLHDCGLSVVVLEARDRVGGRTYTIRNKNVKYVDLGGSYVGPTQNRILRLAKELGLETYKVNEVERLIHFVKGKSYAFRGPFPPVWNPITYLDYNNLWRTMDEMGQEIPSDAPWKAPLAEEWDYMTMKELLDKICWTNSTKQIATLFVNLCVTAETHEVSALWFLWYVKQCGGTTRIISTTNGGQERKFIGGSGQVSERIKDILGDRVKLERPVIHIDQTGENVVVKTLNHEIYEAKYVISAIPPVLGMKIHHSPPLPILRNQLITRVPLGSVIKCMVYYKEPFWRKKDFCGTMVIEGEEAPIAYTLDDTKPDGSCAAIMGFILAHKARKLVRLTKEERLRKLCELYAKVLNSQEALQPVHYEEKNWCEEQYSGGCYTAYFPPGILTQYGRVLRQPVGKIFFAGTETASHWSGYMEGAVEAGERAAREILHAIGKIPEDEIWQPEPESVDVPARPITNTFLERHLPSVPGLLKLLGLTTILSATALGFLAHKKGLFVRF
Task for the reader: assign each of the following molecules its reported pIC50.
Numbers only, as −log10 of the molar value.

Solved entries:
C[C@H](NCc1ccc(OCc2ccccc2)cc1)C(N)=O: 6.59
C[C@H](NCc1ccc(OCc2ccc(Cl)cc2)cc1)C(N)=O: 5.66
NC(=O)[C@H](CO)NCc1ccc(OCc2ccccc2)cc1: 6.39
C[C@@H](NCc1ccc(OCc2cccc(Cl)c2)cc1)C(N)=O: 6.10

# context switch: different molecule, same pIC50
pIC50 for NC(=O)[C@@H](NCc1ccc(OCc2ccccc2)cc1)c1ccccc1 is 4.13

----------
Assign pIC50 to each entry below.
# assayed target: Amine oxidase [flavin-containing] A (Rattus norvegicus)
# Sequence (P21396 whole entry): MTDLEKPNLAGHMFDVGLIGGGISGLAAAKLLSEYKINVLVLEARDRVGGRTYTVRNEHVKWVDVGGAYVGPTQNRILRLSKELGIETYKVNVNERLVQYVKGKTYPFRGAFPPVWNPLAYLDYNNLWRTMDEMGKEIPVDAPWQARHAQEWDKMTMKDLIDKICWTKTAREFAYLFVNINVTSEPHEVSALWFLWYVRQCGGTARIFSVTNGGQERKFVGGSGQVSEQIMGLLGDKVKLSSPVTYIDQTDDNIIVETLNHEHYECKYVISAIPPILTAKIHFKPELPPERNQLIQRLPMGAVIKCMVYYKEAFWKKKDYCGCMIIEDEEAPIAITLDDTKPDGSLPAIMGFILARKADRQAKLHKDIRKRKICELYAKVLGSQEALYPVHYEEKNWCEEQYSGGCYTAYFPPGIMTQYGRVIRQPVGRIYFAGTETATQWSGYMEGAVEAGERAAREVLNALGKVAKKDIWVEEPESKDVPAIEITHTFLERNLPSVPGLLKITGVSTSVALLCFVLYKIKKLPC
One number for each entry, as −log10 of the molar value.

NC(=O)CNCc1ccc(OCc2cccc(Cl)c2)cc1: 4.43
NC(=O)[C@H](CO)NCc1ccc(OCc2ccccc2)cc1: 4.05
C[C@H](C(N)=O)N1CCc2cc(OCc3cccc(F)c3)ccc2C1: 4.30

For each entry beneath this line, provide reported pIC50.
1. C[C@@H](NCc1ccc(OCc2cccc(F)c2)cc1)C(N)=O
2. NC(=O)[C@@H](CO)NCc1ccc(OCc2cccc(Cl)c2)cc1

Result:
1. 4.38
2. 4.00

----------
# assayed target: Amine oxidase [flavin-containing] A (Rattus norvegicus)
# measurement description: Inhibition of rat brain mitochondria MAOA at 100 uM by radioenzymatic assay
assay endpoint: inhibition at 100 µM (%)
Answers are plain numbers, in %.

The examples below pair each entry with its known result.
NC(=O)[C@H](CO)NCc1ccc(OCc2ccc([N+](=O)[O-])cc2)cc1: 38
NC(=O)[C@@H](NCc1ccc(OCc2ccc([N+](=O)[O-])cc2)cc1)c1ccccc1: 16
C[C@H](NCc1ccc(OCc2ccc(Cl)cc2)cc1)C(N)=O: 37
NC(=O)[C@@H](NCc1ccc(OCc2ccc(Cl)cc2)cc1)c1ccccc1: 27
C[C@H](NCc1ccc(OCc2ccc([N+](=O)[O-])cc2)cc1)C(N)=O: 22
NC(=O)[C@@H](NCc1ccc(OCc2cccc(Cl)c2)cc1)c1ccccc1: 33

Go through the items and report each one's inhibition at 100 µM.
1. NC(=O)[C@@H](NCc1ccc(OCc2ccccc2)cc1)c1ccccc1
2. NC(=O)[C@H](CO)NCc1ccc(OCc2ccc(Cl)cc2)cc1

Result:
[35, 47]
